This collection of values is drawn from ChEMBL document CHEMBL3507680.

test: Human HepG2 cell viability assay in 384 well format; assay type: toxicity, cell-based; parameters: dose 125 nL, time 70.5 hour; concentration not given beside the values; conditions: HepG2 cells, read-out: Inhibition
READOUT_TYPE: cytotoxicity at 70.5 h

Prompt: // returns reported cytotoxicity at 70.5 h for input N#Cc1cn(C2CC2)c(=O)n(CC(O)c2ccc(F)cc2)c1=O (configuration not stated)
Completion: -16.6%

Prompt: Would you kindly share the measured cytotoxicity at 70.5 h for Cc1ccc(C(=O)N(C)Cc2cc(Br)cs2)cn1 ?
Completion: -8.7%

Prompt: For CN(C)[C@@H]1CN(Cc2cnn(C)c2)[C@@H]2COC[C@H]12 , what is its reported cytotoxicity at 70.5 h?
Completion: 7.8%

Prompt: Given Cc1[nH]c2ccccc2c1-c1ccnc(N[C@@H](CO)C(C)C)n1 , state its recorded cytotoxicity at 70.5 h.
Completion: -3.22%

Prompt: Using the record for CN(CCO)CC1COCCN1C(=O)C1(c2cccs2)CCCC1 (configuration not stated) , report its cytotoxicity at 70.5 h.
Completion: -1%

Prompt: Which cytotoxicity at 70.5 h value is on record for Cc1cc(C)n(CC2CCCN2CCS(C)(=O)=O)n1 (configuration not stated) ?
Completion: -9.56%

Prompt: Query: cytotoxicity at 70.5 h; subject: CN(Cc1nnc2n1CCC2)C(=O)Cc1ccc2c(c1)CCC2
Completion: -6.67%

Prompt: Bench note: what cytotoxicity at 70.5 h did CC(C)C(NC(=O)NCc1cccnc1N(C)C)c1cccs1 (configuration not stated) show?
Completion: -20.8%

Prompt: State the recorded cytotoxicity at 70.5 h for this entry: CCCC(=O)N(C)C(c1cccc(F)c1)c1ccccn1 (configuration not stated)
Completion: -3.08%

Prompt: Recorded cytotoxicity at 70.5 h of Fc1ccc(C2(CNCC(F)F)CCOC2)cc1 (configuration not stated) , please.
Completion: -2.85%

Prompt: Field request: cytotoxicity at 70.5 h | item: O=S(=O)(c1ccccc1)N1CCN(Cc2ccc(F)cc2Br)CC1
Completion: -8.77%

Prompt: Field request: cytotoxicity at 70.5 h | item: Cc1ccc(N2CCCC(N3CCN(CC(F)F)CC3)C2=O)cc1 (configuration not stated)
Completion: -6.94%

Prompt: For COc1ccc(CN2CCC3(CC2)CC(c2cccnc2)CO3)cc1 (configuration not stated) , what is its reported cytotoxicity at 70.5 h?
Completion: -6.67%

Prompt: What measured cytotoxicity at 70.5 h goes with Cc1cnc(N2CC[C@@H](N3CCOCC3)[C@@H]2Cc2ccncc2)nc1 ?
Completion: -1.98%

Prompt: Requested read-out: cytotoxicity at 70.5 h. Entry: O=C(NCCNc1ncccn1)C1CC(=O)N(CC2CC2)C1 (configuration not stated)
Completion: 16.4%

Prompt: I'd like to know its cytotoxicity at 70.5 h. The compound in question is Cc1nc(CN2CCCC(N(C)CCOCC(F)(F)F)C2)no1 (configuration not stated)
Completion: -6.75%

Prompt: If you can, please state the reported cytotoxicity at 70.5 h value of CC(=O)N1CCCC(c2ccc(CO)c(-c3c(C)noc3C)n2)C1 (configuration not stated) .
Completion: 27.2%

Prompt: Please give the measured cytotoxicity at 70.5 h for this compound: Cc1nn(C)c(Cl)c1C1CCCN1C(=O)c1csnn1 (configuration not stated)
Completion: -4.32%

Prompt: Requested read-out: cytotoxicity at 70.5 h. Entry: CC(C)c1nnc(CN2CCCC(Cn3cncn3)C2)o1 (configuration not stated)
Completion: -7.64%

Prompt: Requested field: cytotoxicity at 70.5 h. Item: CN(CC(=O)NCC(F)(F)F)C(=O)c1ccc(C(=O)OC(C)(C)C)cc1
Completion: -0.193%

Prompt: I am curious: what cytotoxicity at 70.5 h value has been reported for Cc1nc(-c2cc(C(=O)NCC(C)(C)CO)c3ccccn23)cs1 ?
Completion: 5.35%

Prompt: Please report the recorded cytotoxicity at 70.5 h for O=C1NC(c2ccccc2)=N[C@@]12CC[C@@H]1CN(Cc3nccs3)C[C@@H]12 .
Completion: -4.6%

Prompt: Entry CC(c1nc(C2CC2)no1)N(C)Cc1ccc2c(c1)OCCO2 (configuration not stated) has what cytotoxicity at 70.5 h?
Completion: -0.549%

Prompt: Give its cytotoxicity at 70.5 h value. Item: OCC1COCCN(c2ncccc2C(F)(F)F)C1 (configuration not stated)
Completion: 3.25%

Prompt: Quick one: cytotoxicity at 70.5 h of CCOC(=O)[C@]12CCCN(Cc3nccs3)C[C@H]1CN(CCN(C)C)C2 ?
Completion: -10.1%

Prompt: Query: cytotoxicity at 70.5 h; subject: Cc1ccc(OCC(=O)N2CCOCC(O)(CN3CCCC3)C2)cc1C (configuration not stated)
Completion: 27.8%

Prompt: Form field: reported cytotoxicity at 70.5 h of COC(=O)[C@@H](Nc1nc(C2CCCC2)nc2c1cnn2C)[C@@H](C)O
Completion: -11.8%

Prompt: Please report the recorded cytotoxicity at 70.5 h for Cc1ccc(C(=O)NCC2CCN(C)c3ccccc32)c(=O)[nH]1 (configuration not stated) .
Completion: -2.94%

Prompt: So what's the measured cytotoxicity at 70.5 h for this one? O=C(c1cscn1)N1C[C@H]2CCCC(OCc3cccnc3)[C@H]2C1 (some centres not stated)
Completion: -11.5%

Prompt: May I ask what cytotoxicity at 70.5 h has been recorded for O=C1CC(NCc2cccc(O)c2)CN1CCc1cccc(Cl)c1 (configuration not stated) ?
Completion: 14.8%

Prompt: Fill in: cytotoxicity at 70.5 h of Cc1nn(C)c(N2CCOCC2)c1CNC1CCN(C(C)(C)C)CC1 is ___
Completion: 1.66%

Prompt: What value of cytotoxicity at 70.5 h has been reported for the following compound? Cc1nc(N(C)C)nc(N(C)Cc2cnccn2)c1C
Completion: -9.41%

Prompt: Any idea what cytotoxicity at 70.5 h was measured for CCOc1ccc(OCc2nc3c(c(=O)[nH]2)CCNC3)cc1 ?
Completion: -13.5%

Prompt: What does the record list as cytotoxicity at 70.5 h for CCOC(=O)c1sc2ccsc2c1CNS(C)(=O)=O ?
Completion: -3.52%

Prompt: What value of cytotoxicity at 70.5 h has been recorded for this entry: CN(C)S(=O)(=O)N1CCC(c2n[nH]cc2-c2ccnc(N)c2)C1 (configuration not stated)
Completion: 5.75%

Prompt: Entry CCN(CC)C(=O)[C@@H]1C[C@@H](NC(=O)c2ccoc2)CN1C : reported cytotoxicity at 70.5 h = ?
Completion: 25.9%

Prompt: Suppose we examine the compound Cc1cccc(-c2nc(CN3CCn4c(nnc4C4CC4)C3)no2)c1 ; what cytotoxicity at 70.5 h value has been reported?
Completion: -12.1%

Prompt: Look at this compound and give its reported cytotoxicity at 70.5 h. CC(C)CNC(=O)c1cc(C2CC2)nc2onc(C3CCNCC3)c12
Completion: -3.04%

Prompt: What cytotoxicity at 70.5 h value was documented for this compound, Cn1ncc2c(=O)[nH]c(CN3CCCc4cc(F)cc(F)c43)nc21 ?
Completion: -15.9%

Prompt: May I ask what cytotoxicity at 70.5 h has been recorded for CCc1nccc(CN2CCCC(CNC(=O)c3ccccn3)C2)n1 (configuration not stated) ?
Completion: -3.62%

Prompt: Recorded cytotoxicity at 70.5 h for Cc1nnc(SCc2ccccn2)s1 , please?
Completion: 1.03%

Prompt: Looking for the measured cytotoxicity at 70.5 h of Cc1cc(N(Cc2cccs2)C2CC2)n2nc(C(F)(F)F)nc2n1 , can you help?
Completion: -1.76%

Prompt: Recorded cytotoxicity at 70.5 h of CC(C)CN(Cc1ccccn1)Cc1ccccc1C(=O)O , please.
Completion: 14.4%

Prompt: Recorded cytotoxicity at 70.5 h for CCc1ncc2c(n1)CN(CC(=O)Nc1cccnc1)CC2 , please?
Completion: 10.9%

Prompt: I have this compound here, CC(C)N(C)C(=O)C1=NOC2(CCN(C(=O)c3ccncc3)C2)C1 (configuration not stated) , and I need its recorded cytotoxicity at 70.5 h.
Completion: -8.56%

Prompt: Need cytotoxicity at 70.5 h, item CSC(C)C(=O)NCc1ccnc(N2CCN(C)CC2)c1 (configuration not stated)
Completion: -7.04%

Prompt: I have this compound here, CC(C)N1CCn2c(COCC3CCOCC3)cnc2C1C (configuration not stated) , and I need its recorded cytotoxicity at 70.5 h.
Completion: -1.85%
